Reference source for all entries: the supplement of paper PMC10567573

B1: ZNF263 (parent)
chain: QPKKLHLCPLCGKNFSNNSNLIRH

Variants of: B1
Assay: protein stability index of a GFP-peptide fusion (GPS, HEK-293T) (PSI 1-6); higher = more stable;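 further: lentivirally expressed fusions sorted by FACS into six bins by GFP to DsRed ratio, PSI derived from sequencing read proportions per bin multiplied by bin number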
Conditions: c terminus: a fixed tail appended
Listing of entries alongside the reported protein stability index.
A bare number is all that is needed in reply.

Q1V : 2.12
P2L : 1.81
L21V : 2.85
P2A : 2.42
I22A : 2.8

Prompt: State, in one line, measured protein stability index of "N18F"
Completion: 2.76

Prompt: State, in one line, measured protein stability index of "P2N"
Completion: 2.31

Prompt: State, in one line, measured protein stability index of "C11S"
Completion: 2.74

Prompt: State, in one line, measured protein stability index of "P9I"
Completion: 1.89

Prompt: State, in one line, measured protein stability index of "P9G"
Completion: 2.26

Prompt: State, in one line, measured protein stability index of "P2W"
Completion: 2.14

Prompt: State, in one line, measured protein stability index of "H6Q"
Completion: 2.22

Prompt: State, in one line, measured protein stability index of "L7A"
Completion: 2.69

Prompt: State, in one line, measured protein stability index of "L7W"
Completion: 2.38
